# procedure-text: AUC in Wistar Han rat at 10 mg/kg, po by LC/MS method
# Format: ADME, organism-based
# experimental-setup: in vivo
Reported AUC values for a set of compounds
Report the figure in µM·h without appending any unit label.

Completed entries (count: 2):
- record-smiles: "COC(=O)N[C@H](C(=O)N1CCC[C@H]1c1ncc(-c2cc(F)c3c(c2)O[C@@H](c2cc4c(s2)CCC4)n2c-3cc3cc(-c4cnc([C@@H]5CCCN5C(=O)[C@@H](NC(=O)OC)[C@@H]5CCOC(C)(C)C5)[nH]4)ccc32)[nH]1)C(C)C"
  AUC (µM·h): 1.9
- record-smiles: "CCCc1ncc([C@@H]2Oc3cc(-c4cnc([C@@H]5CCCN5C(=O)[C@@H](NC(=O)OC)C(C)C)[nH]4)cc(F)c3-c3cc4cc(-c5cnc([C@@H]6CCCN6C(=O)[C@@H](NC(=O)OC)[C@@H]6CCOC(C)(C)C6)[nH]5)ccc4n32)s1"
  AUC (µM·h): 0.08

Need AUC of `COC(=O)N[C@H](C(=O)N1CCC[C@H]1c1ncc(-c2cc(F)c3c(c2)O[C@@H](c2ccc(C4CC4)s2)n2c-3cc3cc(-c4cnc([C@@H]5CCCN5C(=O)[C@@H](NC(=O)OC)C5CC(C)(C)OC(C)(C)C5)[nH]4)ccc32)[nH]1)C(C)C` , thanks.
0.7

// query: `COC(=O)N[C@H](C(=O)N1CCC[C@H]1c1ncc(-c2ccc3c(c2)cc2n3[C@H](c3ccc4c(c3)OCCN4C)Oc3cc(-c4cnc([C@@H]5CCCN5C(=O)[C@@H](NC(=O)OC)C5CCOCC5)[nH]4)cc(F)c3-2)[nH]1)C(C)C`
0.1

###

# target-of-assay: Nonstructural protein 5A (Hepatitis C virus) (UniProt Q5L478)
# Sequence (Q5L478 as listed by the source): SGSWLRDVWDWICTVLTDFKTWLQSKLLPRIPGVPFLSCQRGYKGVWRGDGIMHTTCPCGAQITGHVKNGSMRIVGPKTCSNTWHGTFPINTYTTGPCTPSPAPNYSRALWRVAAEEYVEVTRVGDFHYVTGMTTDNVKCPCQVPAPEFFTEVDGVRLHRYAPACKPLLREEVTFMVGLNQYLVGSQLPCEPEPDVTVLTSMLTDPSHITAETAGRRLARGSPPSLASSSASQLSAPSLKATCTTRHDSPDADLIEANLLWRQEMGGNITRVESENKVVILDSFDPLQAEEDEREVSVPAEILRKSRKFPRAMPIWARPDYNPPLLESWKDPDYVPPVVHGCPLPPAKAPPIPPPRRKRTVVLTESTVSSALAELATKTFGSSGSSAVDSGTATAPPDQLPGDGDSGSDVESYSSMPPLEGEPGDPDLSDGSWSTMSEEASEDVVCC
# procedure-text: Inhibition of NS5A in HCV genotype 1a infected in HuH7 replicon cells assessed as decrease in viral replication after 3 days by RT-PCR method
# Type: cell-based
# experimental-setup: Hepatitis C virus subtype 1a
Reported EC90 values for a set of compounds
Report the figure in pM without appending any unit label.

- record-smiles: "COC(=O)N[C@H](C(=O)N1CCC[C@H]1c1ncc(-c2cc(F)c3c(c2)O[C@@H](c2ccc4c(c2)O[C@@H](C)CC4)n2c-3cc3cc(-c4cnc([C@@H]5CCCN5C(=O)[C@@H](NC(=O)OC)[C@@H]5CCOC(C)(C)C5)[nH]4)ccc32)[nH]1)C(C)C"
  EC90 [pM]: 5
- record-smiles: "COC(=O)N[C@H](C(=O)N1CCC[C@H]1c1ncc(-c2cc(F)c3c(c2)O[C@@H](c2cc4c(s2)CCC4)n2c-3cc3cc(-c4cnc([C@@H]5CCCN5C(=O)[C@@H](NC(=O)OC)C5CCOCC5)[nH]4)ccc32)[nH]1)C(C)C"
  EC90 [pM]: 5
- record-smiles: "COC(=O)N[C@H](C(=O)N1CCC[C@H]1c1ncc(-c2ccc3c(c2)cc2n3[C@H](c3ccc4c(c3)OCCN4C)Oc3cc(-c4cnc([C@@H]5CCCN5C(=O)[C@@H](NC(=O)OC)C5CCOCC5)[nH]4)cc(F)c3-2)[nH]1)C(C)C"
  EC90 [pM]: 71

GET /values?readout=EC90&system=Nonstructural protein 5A (Hepatitis C virus) (UniProt Q5L478)&item= `COC(=O)N[C@H](C(=O)N1CCC[C@H]1c1ncc(-c2cc(F)c3c(c2)O[C@@H](c2nc4c(s2)CCC4)n2c-3cc3cc(-c4cnc([C@@H]5CCCN5C(=O)[C@@H](NC(=O)OC)[C@@H]5CCOC(C)(C)C5)[nH]4)ccc32)[nH]1)C(C)C`
5
